Recorded values, source patent US20130011375A1.

- test.system: T1, HCV NS3 1073 (genotype 6) peptide on HLA-A*02:01 (human)
- T1 peptide: AINGVMWTV
- assay.summary: cytokine release
quantity.kind: binding result

• I4G7 alpha chain with I4G7 beta chain1 (TCR, V domains shown) Valpha: AQSVTQPDARVTVSEGASLQLRCKYSYFGTPYRIEFSGREFALLFWYVQYPRQGLQLLLKYYPGDPVVQGVNGFEAEFSKSNSSFHLRKASVHWSDWAVYFCAVSRDTNTGKLTFGDGTVLTVKP Vbeta: EAAVTQSPRNKVAVTGGKVTLSCNQTNNHNNMGELNLAAANSPLYWYRQDTGHGLRLIHYSYVADSTEKGDIPDGYKASRPSQENFSLILELASLSQTAVYFCASSGGLGGHTLYFGAGTRLSVL = no recognition
• I4G7 alpha chain with I4G7 beta chain2 (TCR, V domains shown) Valpha: AQSVTQPDARVTVSEGASLQLRCKYSYFGTPYLFWYVQYPRQGLQLLLKYYPGDPVVQGVNGFEAEFSKSNSSFHLRKASVHWSDWAVYFCAVSRDTNTGKLTFGDGTVLTVKP Vbeta: EAAVTQSPRNKVTVTGGNVTLSCRQTNSHNYMYWYRQDTGHGLRLIHYSYGAGNLRIGDVPDGYKATRTTQEDFFLLLELASPSQTSLYFCASSDYRDSGNTLYFGEGSRLIVV = no recognition
• I8A4 (TCR, V domains shown) Valpha: LAKTTQPPSMEAYEGQEVNVSCSHTNIATSEYIYWYRQVPHQGPQFIIQGYKDYVVNEVASLFISADRKLSTLSLPWVSLRDAAVYYCIVTDMETGGYKVVFGSGTRLLVSP Vbeta: EAAVTQSPRNKVAVTGGKVTLSCNQTNNHNNMYWYRQDTGHGLRLIHYSYGAGSTEKGDIPDGYKASRPSQENFSLILELATPSQTSVYFCASASTGASSYEQYFGPGTRLTVL = no recognition
